Measured apparent KD of K4 kissing-loop reporter accompanies every entry in the list below.
# System: K4 kissing-loop RNA reporter
# experiment.summary: apparent KD of K4 kissing-loop reporter; higher = weaker reporter binding
# test.context: Eterna round: R107; input ligand: arginine 13.2 mM
API: value field is a number in nM; no unit string.

# seq.string, readout.units, apparent KD of K4 kissing-loop reporter
measured = [
    ("UUCUGCAUCUCGGCCGCCACUCACUAGUGAUGUUAGUAAGGAGCGACUAGACAUGUCCCGUUGUUGAGGACCGGGAGAGGCUCUU [#14 K4 Tryptophan B Exclusion]", "nM", 164),
]

Prompt: Recorded apparent KD of K4 kissing-loop reporter for UGCGCUGUGUCCUGAAAUGUCCUCCGGGAUACCAGAGUCUUUUUAUUCCCUUGGCAGCUUGAGUGAUGUUUGAUGCCGUUCUUGU [yvvymullin] with K4 kissing-loop RNA reporter, please?
Completion: 481

Prompt: Recorded apparent KD of K4 kissing-loop reporter for UUACCAAGUGAUGUUUGGAAAUAUCCUAGGCAGGAUAUGCGGAAACGCAGAAGGGCCACCUUAUAGUGAAGGAAACUUCGCUAUU [Ex FMN A 2] with K4 kissing-loop RNA reporter, please?
Completion: 124

Prompt: Recorded apparent KD of K4 kissing-loop reporter for AAAUUUUCAAGUGAUACCAGACAUUUCUAUUACAUUAAUAUAGCUAAGUGAUGUUUAGCAGUCCCUUGGCAGCACUAUUUAAUUA [JR_SSTheophyB_Sub014] with K4 kissing-loop RNA reporter, please?
Completion: 265

Prompt: Recorded apparent KD of K4 kissing-loop reporter for AGGUACAAAAGUACCGCUAGAUCCACGGAAGGAGCGGCCGAAAGGCCAGGUAGGUCGCCGGGCAGUGAUGUUGCCGGAUCUAGCA [Omei KL Arginine A SS A v2] with K4 kissing-loop RNA reporter, please?
Completion: 171

Prompt: Recorded apparent KD of K4 kissing-loop reporter for UGAUACCAGACGGCCGCCACUCCUGCAAGUCAAAGACUUGCUAAGGAAAUCGUCCAGUGAUGUUGGAGGACCGGGUCUGGUAUCU [TrypBX 17 #SwitchBubble #Palindromic #StaticStem] with K4 kissing-loop RNA reporter, please?
Completion: 670

Prompt: Recorded apparent KD of K4 kissing-loop reporter for AGGAUCCGUCGACAAAAGUCGACAUAAACCAAGGAUAUGACGAAAGUCAGAAGGUGGUCAUAAGGCCAGUGAUGUUGGUGGAUCC [FmnA 12 #SwitchBubble #K4Late] with K4 kissing-loop RNA reporter, please?
Completion: 431

Prompt: Recorded apparent KD of K4 kissing-loop reporter for AGAACUGUCUGAGAUACCAGCCAUAGGAGUGAUGUUCCUAGCUCCACAAAGUGGAGCCAUGGCCCUUGGCAGCUCAGACAGUUCA [Omei KL Theo B SS A v8] with K4 kissing-loop RNA reporter, please?
Completion: 191

Prompt: Recorded apparent KD of K4 kissing-loop reporter for UGUUCAAGUGAUGUUUGAGACUAGGUGGAUACCAGCGCAUGCAGUCGCCCUUGGCAGCCAGAAACCAACGCCGCGCGCUUCGGCU [theeternabot_sameState_KL_Theo_A_39] with K4 kissing-loop RNA reporter, please?
Completion: 325

Prompt: Recorded apparent KD of K4 kissing-loop reporter for AAGGCAAUUCGAGGAUAUCACAUACACUCCUUGAAUCAAGGAGUGAUGUUCCUUGAAGUGUAUGCAUGAGAAGGCGAAUUGCCUU [#05 K4 FMN B Same State] with K4 kissing-loop RNA reporter, please?
Completion: 86.5

Prompt: Recorded apparent KD of K4 kissing-loop reporter for AAGAGGUAGGCGGCCGCCACUAGUUGUGAACACAUACAAGCCAGUGAUGUUGGUAUGGUGGGCGGUAGGACCGGGCCUACCUGAA [Exclusion - Tryptophan B (Freestyle 17)] with K4 kissing-loop RNA reporter, please?
Completion: 263

Prompt: Recorded apparent KD of K4 kissing-loop reporter for GCUAUGGUAGGAAGGAGCGCUGCGUUGUUUUUACGAGUGAUGUUCGGAAGCGGCGUGUUAAAGCAGGUAGGUCGCCUACUAUAGC [Arginine B K4 24] with K4 kissing-loop RNA reporter, please?
Completion: 135

Prompt: Recorded apparent KD of K4 kissing-loop reporter for UAAUUUAUGUCUUUAAUUUAAUAAUCAGAUACCAGUGAUUUAUGACACCCUUGGCAGCUGUAUUGAGUGAUGUUCUUAUACUUAA [JR_Nu_ExcTheophyA_Sub021] with K4 kissing-loop RNA reporter, please?
Completion: 169

Prompt: Recorded apparent KD of K4 kissing-loop reporter for UUAGAGAUCUCAGGAUAUCAGUGAUGUUGGUGUAAAGAUCUGAGAUAGAAUUCUAUCUCAGAUCAAUGAGAAGGGAGAUCUCAUU [AK3.2 Exc FMN B] with K4 kissing-loop RNA reporter, please?
Completion: 179

Prompt: Recorded apparent KD of K4 kissing-loop reporter for GUAGGAUGGUGCGAUACCAGACCUGCAGUGAUGUUGCGCCAUAGUGAGUGAUGUUCACCGGUCCCUUGGCAGCGCGUCCAUAAAG [Same State Theophylline B GF 17] with K4 kissing-loop RNA reporter, please?
Completion: 719

Prompt: Recorded apparent KD of K4 kissing-loop reporter for AUGGUGGAUCAGUGAUGUUGGUGGAGUACGUAGGAUAUGAGUGAUGUUAGAAGGAUGGGAGUGAUGUUCCAGGUGGUUGUGUUGU [KL-SSFMN-A1] with K4 kissing-loop RNA reporter, please?
Completion: 364

Prompt: Recorded apparent KD of K4 kissing-loop reporter for UAAAACGCUUGAAUAACAAGCGAAAAUUCGCGAGGACCGGUACGGCCGCCACUCGCUAACUGCGAGUGAUGUUCGAUAAUAAAAU [Mat - Mod of OpenEnded 3 - D4] with K4 kissing-loop RNA reporter, please?
Completion: 70.1

Prompt: Recorded apparent KD of K4 kissing-loop reporter for UAGGAGUGAUGUUCCAUAUCUUGAGCCGAAGGAGCGCCUUUAUAGGCAGGUAGGUCGCGGCAGAAGGUACCAGUGAUGUUGGAAA [Same State Arginine A GF6] with K4 kissing-loop RNA reporter, please?
Completion: 147

Prompt: Recorded apparent KD of K4 kissing-loop reporter for UGUCAUUGGUCGGCCGCCACUUCAAGGUCAAAGACCAAAGAGUGAUGUUCUUAGACGAAAGUCAGAAGGACCGGGACCGAUGACU [TrypBS 9 #SwitchBubble #K4Middle] with K4 kissing-loop RNA reporter, please?
Completion: 144

Prompt: Recorded apparent KD of K4 kissing-loop reporter for UUAUUAAUAACAGAUACCAGUCCAGAAUGAAAACUAUAGUGAUGUUAUAAUAAAGGGAAGGACCCUUGGCAGCUGUAAUAUAUUU [AstrosSSTheB#2] with K4 kissing-loop RNA reporter, please?
Completion: 427

Prompt: Recorded apparent KD of K4 kissing-loop reporter for `GCAUGCAUGGCAGGAUAUAAUCUGGAGUGAUGUUCCUUUAACCUUUCGAACGGCGAGCCAGGUUGAUUAGAAGGGCCAUGCAUGC` with K4 kissing-loop RNA reporter, please?
Completion: 476

Prompt: Recorded apparent KD of K4 kissing-loop reporter for GCAUCCAUGGCAGGAUAUAGGUUCGUGGAGUGAUGUUCCAUAACCCGAGUGAUGUUCGUUAUCCACCUAGAAGGGCCAUGGAUGC [whbob_Ex_FMNB__2th211] with K4 kissing-loop RNA reporter, please?
Completion: 204

Prompt: Recorded apparent KD of K4 kissing-loop reporter for AGACUACUGAUAGGAUAUAACAUACUAACUCGUAUACCAAAGGUAUACGAGACCCUUCUAGUGAUGUUAGAAGGGUCGGUAGUCA [Omei KL FMN B Exc B v6] with K4 kissing-loop RNA reporter, please?
Completion: 74

* * *

# System: MS2 coat protein
# experiment.summary: apparent KD of MS2 coat protein; designed switch direction (-1 OFF switch, 1 ON switch): -1; higher = weaker reporter binding
# test.context: input ligand: FMN 200 uM
just bin them by apparent KD of MS2 coat protein: band 1: < 20 nM; band 2: ≥ 20 nM and < 40 nM; band 3: ≥ 40 nM

Prompt: # bin lookup: classify UGAGUGCUGCGAGGAUAUACAUGAGGAUCACCCAUGUAAAAGUGUGAGGCUUUGCCUCACACUAUGUAGAAGGCGCAGUACUCU [JL ENG2 1.04] (Eterna round: R96, puzzle: Exclusion NG 2) by its apparent KD of MS2 coat protein
Completion: band 1

* * *

# System: K4 kissing-loop RNA reporter;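 note: bound reporter read as fluorescence of individual clusters on recovered sequencing chips by microscopy, with normalized cluster intensities fitted with a binding model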
# experiment.summary: apparent KD of K4 kissing-loop reporter; higher = weaker reporter binding
# test.context: Eterna round: R107; input ligand: theophylline 20 uM
Measured apparent KD of K4 kissing-loop reporter accompanies every entry in the list below.
Just the number plus its unit, please.

Prompt: What does the record list as apparent KD of K4 kissing-loop reporter for `GCCGUAGAUGGAAGGAGCGAGUCCAAACCAUAUUGCUGAAAAUUCGAGUGAUGUUCGUAAGCUCAGGUAGGUCGCCAUCUACGGC` ?
Completion: 161 nM

Prompt: What does the record list as apparent KD of K4 kissing-loop reporter for UACUGGGCGAGUGAUGUUCGCUCACGUGAUACCAGUGCCAUCCAACACCCUUGGCAGCACGCGGGCAGUGAUGUUGUCCUUGUAU [Exclusion Theophylline A GF 5] ?
Completion: 129 nM

Prompt: What does the record list as apparent KD of K4 kissing-loop reporter for GGGAAGUACGGAGGAUAUGCACUGAGGAGGAGAAUAUAGUGAUGUUAUAUAAGAGGAAGGAGAAGAGUAGAAGGCCGUGGAAAGG [SSFMNB.C] ?
Completion: 151 nM

Prompt: What does the record list as apparent KD of K4 kissing-loop reporter for AGAUUCGACACGGCCGCCACUCGUGGUGGAUUACCUAGUGUCGAAGUUGAGUGAUGUUCAACUACGAGGACCGGGUGUUGAGUCU [KL-XTryp-B7 #analogue] ?
Completion: 211 nM
